system: HepG2 Srxn1-GFP reporter cells (+30 nM CDDO-Me); test: Srxn1-GFP intensity median modified Z-score relative to plate median; higher = stronger NRF2 / oxidative stress reporter activation, active = hit call of the paper; settings: 10 µM; exposure time: 24h
The campaign covered roughly 2,300 compounds. About 330 (14%) showed activity. Only a sample is shown.
test readout: Srxn1-GFP intensity median modified Z-score

>>> assay_result("CC1=CC(=O)C2C(C)(C)CCC[C@]2(C)[C@@]1(O)CCc1ccoc1 (stereo partly drawn) [euspeclibcmpd1719]")
"17.2 (active)"

Supply Srxn1-GFP intensity median modified Z-score value. Item: CC1=C(/C=C/C(C)=C/C=C/C(C)=C/C=C/C=C(C)/C=C/C=C(C)/C=C/C2=C(C)C(=O)CCC2(C)C)C(C)(C)CCC1=O [euspeclibcmpd1669] -0.405 (inactive)

Please report Srxn1-GFP intensity median modified Z-score for the following compound: CCCCCC(=O)Cc1cc(O)cc(O)c1C(=O)Oc1cc(CC(=O)CCCCC)c(C(=O)O)c(OC)c1 [euspeclibcmpd1619] -0.366 (inactive)

====

tested on: HepG2 Srxn1-GFP reporter cells (+30 nM CDDO-Me); assay: Srxn1-GFP intensity median modified Z-score relative to plate median; higher = stronger NRF2 / oxidative stress reporter activation, active = hit call of the paper; settings: 10 µM; exposure time: 24h
In all, about 2,300 compounds went through this assay and about 330 (14%) showed activity. Only a sample is shown.
// class assignment uses Srxn1-GFP intensity median modified Z-score with these ranges: group 1: < -0.4; group 2: ≥ -0.4 and < -0.09; group 3: ≥ -0.09

Worked set:
>>> label_value("C[C@@H]1CC[C@@]2(OC1)O[C@H]1CC3C4CC[C@H]5C[C@@H](O)CC[C@]5(C)C4CC[C@]3(C)[C@H]1[C@@H]2C (stereo partly specified) [euspeclibcmpd2432]")
"group 2"
>>> label_value("c1ccc2[nH]c(-c3cscn3)nc2c1 [euspeclibcmpd291]")
"group 2"
>>> label_value("C[C@]12C=CC(=O)CC1=CCC1C3C[C@@H](O)[C@](O)(C(=O)CO)[C@@]3(C)C[C@H](O)[C@@]12F (stereo partly specified) [euspeclibcmpd302]")
"group 1"
>>> label_value("[Cl][Ca][Cl] [euspeclibcmpd2470]")
"group 3"
>>> label_value("CC(C)CC(NC(=O)C(C)N)C(=O)O (stereo unspecified) [euspeclibcmpd2380]")
"group 3"

Bin? O=C(O)/C=C/C=C/c1ccc2c(c1)OCO2 [euspeclibcmpd1736] group 1

Dear colleague, I would appreciate it if you could identify the bin for OCc1cc(O)c2c(O)c3c(O[C@@H]4O[C@H](CO)[C@@H](O)[C@H](O)[C@H]4O)cccc3c(O[C@@H]3O[C@H](CO)[C@@H](O)[C@H](O)[C@H]3O)c2c1 [euspeclibcmpd932] and reply at your convenience. group 3

Class? Entry: CC1(C)CC2C(=O)CCC3OC3(C)CCC21 (stereo unspecified) [euspeclibcmpd2011] group 2

Entry CC(=O)CC(c1ccccc1)c1c(O)c2ccccc2oc1=O (stereo unspecified) [euspeclibcmpd321] belongs to which category? group 3

Hi, small favor: classify CCNC1CN(CCCOC)S(=O)(=O)c2sc(S(N)(=O)=O)cc21 (stereo unspecified) [euspeclibcmpd1945] by its Srxn1-GFP intensity median modified Z-score when you get a moment. group 2

Band assignment needed for COc1cc(=NS(=O)(=O)c2ccc(N)cc2)[nH]c(OC)n1 [euspeclibcmpd399] please. group 1

====

test system: HepG2 Srxn1-GFP reporter cells (+30 nM CDDO-Me); experiment: Srxn1-GFP intensity median modified Z-score relative to plate median; higher = stronger NRF2 / oxidative stress reporter activation, active = hit call of the paper; details: 10 µM; exposure time: 24h
Hit rate of the full screen: of about 2,300 compounds, about 330 (14%) showed activity.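 The calls were made as follows: active = median modified Z-score above 1.96; inactive = 1.96 or below.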 These entries were drawn from the full list.
The reply should be one of these categories: true = active, false = inactive

What outcome does the record of this test show for `O=C(Nc1cccc(Oc2cnccn2)c1)c1cc2cc(F)ccc2[nH]1` ? false

// param item: `COC(=O)/C=C/C(=O)OC` ; yields the recorded call true

How was C[C@]12CCC3c4ccc(OS(=O)(=O)O)cc4CCC3C1CC[C@H]2O (stereo not given in full) classified in this test? false

====

This section presents molecules with their documented Srxn1-GFP intensity median modified Z-score values.
test system: HepG2 Srxn1-GFP reporter cells (+30 nM CDDO-Me); assay: Srxn1-GFP intensity median modified Z-score relative to plate median; higher = stronger NRF2 / oxidative stress reporter activation, active = hit call of the paper; conditions: 10 µM; exposure time: 24h
Hit rate of the full screen: of about 2,300 compounds, about 330 (14%) showed activity. A selection follows.
Give only the figure.

Example entries and their recorded answers appear below.
>>> assay_result("CC(=O)Nc1ccc(S(=O)(=O)N=c2o[nH]c(C)c2C)cc1 [euspeclibcmpd798]")
-0.176
>>> assay_result("Cc1cc(C)c2c(=O)c3c(oc2c1)C(=O)N(Cc1ccc(F)cc1)C3c1cccc(O)c1 (stereo not given)")
1.43
>>> assay_result("COc1ccc(C=CC(=O)c2cc(O)ccc2O)cc1 [euspeclibcmpd1400]")
-0.058
>>> assay_result("CCN(CCCc1ccccc1)CCCc1ccccc1 [euspeclibcmpd16]")
0.166
>>> assay_result("CCCc1cc(C(N)=S)ccn1 [euspeclibcmpd1165]")
-0.267
>>> assay_result("O=C(O)CCCCCCCC(O)C(O)CCCCCCO (stereo not given) [euspeclibcmpd1577]")
-0.245
>>> assay_result("Cc1cc2c(s1)N=c1ccccc1=NC2N1CCN(C)CC1 (stereo not given) [euspeclibcmpd2354]")
0.441
>>> assay_result("CC1CC(=O)NN=C1c1ccc(NN=C(C#N)C#N)cc1 (stereo not given) [euspeclibcmpd481]")
0.356

Would you please give the reported Srxn1-GFP intensity median modified Z-score of CON=C1C[C@]2(C[C@@H]3C[C@@H](C/C=C(\C)C[C@@H](C)/C=C/C=C4\CO[C@@H]5[C@H](O)C(C)=CC(C(=O)O3)[C@]45O)O2)O[C@H](/C(C)=C/C(C)C)C1C (stereo not given in full) [euspeclibcmpd768] with HepG2 Srxn1-GFP reporter cells (+30 nM CDDO-Me)? -0.575

Look up HepG2 Srxn1-GFP reporter cells (+30 nM CDDO-Me) data: Srxn1-GFP intensity median modified Z-score of CC(=O)NC(CC(C)C)C(=O)O (stereo not given) [euspeclibcmpd1070] , then report it. -0.124

====

test system: HepG2 Srxn1-GFP reporter cells (+30 nM CDDO-Me); assay: Srxn1-GFP intensity median modified Z-score relative to plate median; higher = stronger NRF2 / oxidative stress reporter activation, active = hit call of the paper; details: 10 µM; exposure time: 24h
The campaign covered roughly 2,300 compounds. About 330 (14%) showed activity. These entries were drawn from the full list.
test readout: Srxn1-GFP intensity median modified Z-score
When you answer, write just the number.

>>> assay_result("Oc1cc2cc(CCN3CCN(c4nsc5ccccc45)CC3)c(Cl)cc2[nH]1")
-0.197
>>> assay_result("CC(C)[N+](C)(CCOC(=O)C1c2ccccc2Oc2ccccc21)C(C)C")
0.13
>>> assay_result("COc1cc(O)c(C(=O)c2ccccc2)cc1O")
-0.376
>>> assay_result("CC(CCC(=O)O)[C@H]1CCC2C3CC[C@@H]4CCCC[C@]4(C)C3CC[C@@]21C (some centres not stated)")
1.64
>>> assay_result("OC[C@H]1O[C@@H](O[C@@H]2[C@@H](CO)O[C@](O)(CO)[C@H]2O)[C@H](O)[C@@H](O)[C@H]1O")
0.208

Output Srxn1-GFP intensity median modified Z-score of CNC(Cc1ccccc1)C(=O)O (configuration not stated) 1.21

Report measured Srxn1-GFP intensity median modified Z-score; entry is CCC[C@@H]1CC(C(=O)N[C@@H]([C@@H]2O[C@H](SC)[C@H](O)[C@@H](O)[C@H]2O)[C@H](C)Cl)N(C)C1 (some centres not stated) -0.322

====

test system: HepG2 Srxn1-GFP reporter cells (+30 nM CDDO-Me); assay: Srxn1-GFP intensity median modified Z-score relative to plate median; higher = stronger NRF2 / oxidative stress reporter activation, active = hit call of the paper; conditions: 10 µM; exposure time: 24h
Among all 2,300 compounds or so, about 330 (14%) showed activity.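 How the source made its calls: active = median modified Z-score above 1.96; inactive = 1.96 or below.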 These entries were drawn from the full list.
API: response.call in t = active, f = inactive

>>> label_value("CC1CN(C)CCN1C(=O)c1ccc(CCNS(C)(=O)=O)s1 (stereo not drawn)")
"f"
>>> label_value("CC(=O)O[C@H]1CC[C@@]2(C)C(CC[C@]3(C)C2CC=C2C4CC(C)(C)CC[C@]4(C)CC[C@]23C)C1(C)C (stereo partly drawn)")
"f"

Outcome? `CCCCCCCCCc1ccc(OCCOCCOCCOCCOCCOCCOCCOCCOCCO)cc1` t
